# system: KLK5 (Homo sapiens)
# Construct: purchased Novoprotein
# method.notes: biochemical
# Format: binding
# condition.set: ITC, 1xPBS pH 8.0, 25°C
Positions of bridges follow the written chain, without caps; N, C: chain ends. Residues, ends and D or L forms follow the SMILES beside them.
Measured ΔH of individual entries
Field format: number, assumed kJ/mol, no unit text.

The following compounds have reported results that may help.
# compound, ΔH [kJ/mol]
measured = [
    ("CC[C@H](C)[C@@H]1NC(=O)[C@H](CO)NC(=O)[C@H](CCCNC(=N)N)NC(=O)[C@H]([C@@H](C)O)NC(=O)[C@@H]2CSSC[C@H](NC(=O)[C@H](Cc3c[nH]cn3)NC(=O)[C@@H]3CCCN3C(=O)[C@@H]3CCCN3C1=O)C(=O)N[C@@H](Cc1c[nH]c3ccccc13)C(=O)N1CCC[C@H]1C(=O)N[C@@H](CC(=O)O)C(=O)NCC(=O)N[C@@H](CCCNC(=N)N)C(=O)N2 [Analogue 6] (cyclo(CTRSIPPHCWPDGR); disulfide 1-9)", 8.427),
    ("CC[C@H](C)[C@@H]1NC(=O)[C@H](CO)NC(=O)[C@H](CCCCN)NC(=O)[C@H]([C@@H](C)O)NC(=O)[C@@H]2CSSC[C@H](NC(=O)[C@H](Cc3c[nH]cn3)NC(=O)[C@@H]3CCCN3C(=O)[C@@H]3CCCN3C1=O)C(=O)N[C@@H](Cc1ccccc1)C(=O)N1CCC[C@H]1C(=O)N[C@@H](CC(=O)O)C(=O)NCC(=O)N[C@@H](CCCNC(=N)N)C(=O)N2 [Analogue I10H] (cyclo(CFPDGRCTKSIPPH); disulfide 1-7)", 8.213),
    ("CC[C@H](C)[C@@H]1NC(=O)[C@H](CO)NC(=O)[C@H](CCCNC(=N)N)NC(=O)[C@H]([C@@H](C)O)NC(=O)[C@@H]2CSSC[C@H](NC(=O)[C@H](Cc3c[nH]cn3)NC(=O)[C@@H]3CCCN3C(=O)[C@@H]3CCCN3C1=O)C(=O)N[C@@H](Cc1ccccc1)C(=O)N1CCC[C@H]1C(=O)N[C@@H](CC(=O)O)C(=O)NCC(=O)N[C@@H](CCCNC(=N)N)C(=O)N2 [Analogue 1] (cyclo(CFPDGRCTRSIPPH); disulfide 1-7)", 5.088),
]

Return ΔH (reported value) for this compound: CC[C@H](C)[C@@H]1NC(=O)[C@H](CO)NC(=O)[C@H](CCCCN)NC(=O)[C@H]([C@@H](C)O)NC(=O)[C@@H]2CSSC[C@H](NC(=O)[C@H](Cc3c[nH]cn3)NC(=O)[C@@H]3CCCN3C(=O)[C@@H]3CCCN3C1=O)C(=O)N[C@@H](Cc1c[nH]c3ccccc13)C(=O)N1CCC[C@H]1C(=O)N[C@@H](CC(=O)O)C(=O)NCC(=O)N[C@@H](CCCNC(=N)N)C(=O)N2 [Analogue 2] (cyclo(CTKSIPPHCWPDGR); disulfide 1-9)
17.56

###

# system: KLK5 (Homo sapiens)
# Construct: purchased Novoprotein
# Sequence (Q9Y337 23-293): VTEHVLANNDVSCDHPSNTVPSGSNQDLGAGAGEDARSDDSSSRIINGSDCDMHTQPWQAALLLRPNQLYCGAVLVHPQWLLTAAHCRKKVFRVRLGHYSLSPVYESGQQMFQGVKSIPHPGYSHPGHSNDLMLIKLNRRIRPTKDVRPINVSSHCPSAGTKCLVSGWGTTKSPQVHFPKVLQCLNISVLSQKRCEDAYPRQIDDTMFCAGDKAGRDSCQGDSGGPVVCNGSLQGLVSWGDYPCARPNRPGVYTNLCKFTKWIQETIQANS
# method.notes: biochemical
# Type: binding
# condition.set: ITC, 1xPBS pH 8.0, 25°C
Positions of bridges follow the written chain, without caps; N, C: chain ends. Residues, ends and D or L forms follow the SMILES beside them.
measured.attribute: Stoichiometry (N)
Write the number on its own, no unit after it.

# compound, measured.attribute, observed.value
records = [
    ("CC[C@H](C)[C@@H]1NC(=O)[C@H](CO)NC(=O)[C@H](CCCCN)NC(=O)[C@H]([C@@H](C)O)NC(=O)[C@@H]2CSSC[C@H](NC(=O)[C@H](Cc3c[nH]cn3)NC(=O)[C@@H]3CCCN3C(=O)[C@@H]3CCCN3C1=O)C(=O)N[C@@H](Cc1c[nH]c3ccccc13)C(=O)N1CCC[C@H]1C(=O)N[C@@H](CC(=O)O)C(=O)NCC(=O)N[C@@H](CCCNC(=N)N)C(=O)N2 [Analogue 2] (cyclo(CTKSIPPHCWPDGR); disulfide 1-9)", "Stoichiometry (N)", 1.01),
]

Return Stoichiometry (N) (reported value) for this compound: CC[C@H](C)[C@@H]1NC(=O)[C@H](CO)NC(=O)[C@H](CCCCN)NC(=O)[C@H]([C@@H](C)O)NC(=O)[C@@H]2CSSC[C@H](NC(=O)[C@H](Cc3c[nH]cn3)NC(=O)[C@@H]3CCCN3C(=O)[C@@H]3CCCN3C1=O)C(=O)N[C@@H](Cc1ccccc1)C(=O)N1CCC[C@H]1C(=O)N[C@@H](CC(=O)O)C(=O)NCC(=O)N[C@@H](CCCNC(=N)N)C(=O)N2 [Analogue I10H] (cyclo(CFPDGRCTKSIPPH); disulfide 1-7)
1.06

Return Stoichiometry (N) (reported value) for this compound: CC[C@H](C)[C@@H]1NC(=O)[C@H](CO)NC(=O)[C@H](CCCNC(=N)N)NC(=O)[C@H]([C@@H](C)O)NC(=O)[C@@H]2CSSC[C@H](NC(=O)[C@H](Cc3c[nH]cn3)NC(=O)[C@@H]3CCCN3C(=O)[C@@H]3CCCN3C1=O)C(=O)N[C@@H](Cc1ccccc1)C(=O)N1CCC[C@H]1C(=O)N[C@@H](CC(=O)O)C(=O)NCC(=O)N[C@@H](CCCNC(=N)N)C(=O)N2 [Analogue 1] (cyclo(CFPDGRCTRSIPPH); disulfide 1-7)
1.03

Return Stoichiometry (N) (reported value) for this compound: CC[C@H](C)[C@@H]1NC(=O)[C@H](CO)NC(=O)[C@H](CCCNC(=N)N)NC(=O)[C@H]([C@@H](C)O)NC(=O)[C@@H]2CSSC[C@H](NC(=O)[C@H](Cc3c[nH]cn3)NC(=O)[C@@H]3CCCN3C(=O)[C@@H]3CCCN3C1=O)C(=O)N[C@@H](Cc1c[nH]c3ccccc13)C(=O)N1CCC[C@H]1C(=O)N[C@@H](CC(=O)O)C(=O)NCC(=O)N[C@@H](CCCNC(=N)N)C(=O)N2 [Analogue 6] (cyclo(CTRSIPPHCWPDGR); disulfide 1-9)
1.01

###

# system: KLK5 (Homo sapiens)
# Construct: purchased Novoprotein
# Sequence (Q9Y337 23-293): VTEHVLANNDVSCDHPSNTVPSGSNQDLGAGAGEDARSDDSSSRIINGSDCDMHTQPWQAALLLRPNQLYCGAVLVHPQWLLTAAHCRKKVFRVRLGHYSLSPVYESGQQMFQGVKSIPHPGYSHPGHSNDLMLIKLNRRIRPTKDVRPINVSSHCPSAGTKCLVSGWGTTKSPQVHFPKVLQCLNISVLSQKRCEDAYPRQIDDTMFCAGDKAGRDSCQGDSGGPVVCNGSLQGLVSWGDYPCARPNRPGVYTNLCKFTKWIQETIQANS
# method.notes: biochemical
# Type: binding
# condition.set: ITC, 1xPBS pH 8.0, 25°C
Positions of bridges follow the written chain, without caps; N, C: chain ends. Residues, ends and D or L forms follow the SMILES beside them.
measured.attribute: ΔS (cal mol^-1 kelvin^-1)
Field format: number, assumed cal mol^-1 kelvin^-1, no unit text.

The following compounds have reported results that may help.
# compound, observed.value
measured = [
    ("CC[C@H](C)[C@@H]1NC(=O)[C@H](CO)NC(=O)[C@H](CCCCN)NC(=O)[C@H]([C@@H](C)O)NC(=O)[C@@H]2CSSC[C@H](NC(=O)[C@H](Cc3c[nH]cn3)NC(=O)[C@@H]3CCCN3C(=O)[C@@H]3CCCN3C1=O)C(=O)N[C@@H](Cc1ccccc1)C(=O)N1CCC[C@H]1C(=O)N[C@@H](CC(=O)O)C(=O)NCC(=O)N[C@@H](CCCNC(=N)N)C(=O)N2 [Analogue I10H] (cyclo(CFPDGRCTKSIPPH); disulfide 1-7)", 35.5),
    ("CC[C@H](C)[C@@H]1NC(=O)[C@H](CO)NC(=O)[C@H](CCCNC(=N)N)NC(=O)[C@H]([C@@H](C)O)NC(=O)[C@@H]2CSSC[C@H](NC(=O)[C@H](Cc3c[nH]cn3)NC(=O)[C@@H]3CCCN3C(=O)[C@@H]3CCCN3C1=O)C(=O)N[C@@H](Cc1ccccc1)C(=O)N1CCC[C@H]1C(=O)N[C@@H](CC(=O)O)C(=O)NCC(=O)N[C@@H](CCCNC(=N)N)C(=O)N2 [Analogue 1] (cyclo(CFPDGRCTRSIPPH); disulfide 1-7)", 35.8),
    ("CC[C@H](C)[C@@H]1NC(=O)[C@H](CO)NC(=O)[C@H](CCCNC(=N)N)NC(=O)[C@H]([C@@H](C)O)NC(=O)[C@@H]2CSSC[C@H](NC(=O)[C@H](Cc3c[nH]cn3)NC(=O)[C@@H]3CCCN3C(=O)[C@@H]3CCCN3C1=O)C(=O)N[C@@H](Cc1c[nH]c3ccccc13)C(=O)N1CCC[C@H]1C(=O)N[C@@H](CC(=O)O)C(=O)NCC(=O)N[C@@H](CCCNC(=N)N)C(=O)N2 [Analogue 6] (cyclo(CTRSIPPHCWPDGR); disulfide 1-9)", 42.0),
]

Proceeding to the next compound to report its ΔS.
Return ΔS (reported value) for this compound: CC[C@H](C)[C@@H]1NC(=O)[C@H](CO)NC(=O)[C@H](CCCCN)NC(=O)[C@H]([C@@H](C)O)NC(=O)[C@@H]2CSSC[C@H](NC(=O)[C@H](Cc3c[nH]cn3)NC(=O)[C@@H]3CCCN3C(=O)[C@@H]3CCCN3C1=O)C(=O)N[C@@H](Cc1c[nH]c3ccccc13)C(=O)N1CCC[C@H]1C(=O)N[C@@H](CC(=O)O)C(=O)NCC(=O)N[C@@H](CCCNC(=N)N)C(=O)N2 [Analogue 2] (cyclo(CTKSIPPHCWPDGR); disulfide 1-9)
46.2

Reference source for all entries: paper PMC5100903
